log10(Ki) values for the protein given by its sequence, compiled from several publications.
Target sequence: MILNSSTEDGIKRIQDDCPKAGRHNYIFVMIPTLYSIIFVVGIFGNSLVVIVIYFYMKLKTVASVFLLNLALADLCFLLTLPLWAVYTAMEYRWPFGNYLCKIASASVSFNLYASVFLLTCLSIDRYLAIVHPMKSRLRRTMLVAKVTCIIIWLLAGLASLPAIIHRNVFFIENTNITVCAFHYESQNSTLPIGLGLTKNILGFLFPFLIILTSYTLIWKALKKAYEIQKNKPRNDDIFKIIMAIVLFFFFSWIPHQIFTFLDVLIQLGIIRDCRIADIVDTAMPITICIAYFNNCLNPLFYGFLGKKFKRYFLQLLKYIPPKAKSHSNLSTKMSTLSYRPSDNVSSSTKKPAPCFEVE
Short version: log10 scale, Ki, nM.

# count of solved cases: 3
CCc1nc2c(C)cc(C)nc2n1Cc1ccc2c(-c3nnn[nH]3)cc3ccccc3c(=O)c2c1    -0.18
CCCCOC(=O)NS(=O)(=O)c1ccc(CCC)cc1-c1ccc(Cn2c(C3CCC3)nc3ccccc32)cc1    2.60
CCCCOC(=O)NS(=O)(=O)c1ccc(CCC)cc1-c1ccc(Cn2c(CC)nc3ccccc32)cc1    2.85

Q) State, in one line, measured log10(Ki) of `CCCCc1nc2ccc(NC(=O)NC3CCCCC3)cc2n1Cc1ccc(-c2ccccc2C(=O)O)cc1`
A) 1.46

Q) Query log10(Ki) for `COc1nc(NCCCN2CCOCC2)nc(OC)c1NC(=O)c1ccc(Oc2cc3c(cc2C)CCC3(C)C)o1`
A) 3.57

Q) Consider the compound `CCc1cc(OCc2ccc3c(-c4nnn[nH]4)cc4ccccc4c(=O)c3c2)c2c(n1)CCCC2` . State its measured log10(Ki).
A) 0.11

Q) Give a short answer stating reported log10(Ki) for `Cc1cc(C)c2nc(C3CC3)n(Cc3ccc4c(-c5nnn[nH]5)cc5ccccc5c(=O)c4c3)c2n1` .
A) -0.35

Q) Fill in reported log10(Ki) for this entry: `CCCc1nc2c(C)cc(C)nc2n1Cc1ccc2c(-c3nnn[nH]3)cc3ccccc3c(=O)c2c1`
A) -0.54

====

Target or system UniProt:P30556; metric pKi; compiled from varied reports.
Interpret pKi as the negative base-10 log of the concentration measured in mol/L.

Consider the reported pKi for these compounds:
CCCCOC(=O)NS(=O)(=O)c1ccc(CCC)cc1-c1ccc(Cn2c(C(C)C)nc3ccccc32)cc1    6.41
CCCCC1=N/C(=C\c2ccccc2Br)C(=O)N1Cc1ccc(-c2ccccc2-c2nnn(C(c3ccccc3)(c3ccccc3)c3ccccc3)n2)cc1    6.50

Next compound, please.
Q) Provide UniProt:P30556 pKi reading for `CCOc1nc2cccc(C(=O)O)c2n1Cc1ccc2c(c1)Oc1ccccc1C=C2c1nnn[nH]1` .
A) 8.41
